TARGET OR SYSTEM: human p38alfa (SAPKa) enzyme (Homo sapiens, UniProt Q16539)
Sequence (Q16539 whole entry): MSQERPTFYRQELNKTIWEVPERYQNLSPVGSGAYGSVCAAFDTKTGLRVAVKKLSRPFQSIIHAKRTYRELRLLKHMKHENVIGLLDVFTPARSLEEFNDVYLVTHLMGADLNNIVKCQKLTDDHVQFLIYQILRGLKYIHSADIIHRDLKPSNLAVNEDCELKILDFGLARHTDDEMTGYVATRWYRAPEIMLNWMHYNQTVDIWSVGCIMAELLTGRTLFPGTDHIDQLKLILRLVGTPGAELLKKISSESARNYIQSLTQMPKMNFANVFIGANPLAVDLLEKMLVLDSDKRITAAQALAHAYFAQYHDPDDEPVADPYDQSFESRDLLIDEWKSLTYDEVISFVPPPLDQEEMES
pIC50: −log10 of the molar value.
Outcome label depends on pIC50 relative to 9: at/above gives MET, below gives NOT MET.

Lookup: Item [O-][n+]1ccc2c(-c3ccc(F)cc3Cl)ccnc2c1-c1c(F)cccc1F [Example 39] with pIC50 of 9 or above?
Found: NOT MET

Lookup: Item [O-][n+]1ccc2c(-c3ccc(F)cc3F)cc(OC3CCNCC3)nc2c1-c1c(F)cccc1F [Example 96] with pIC50 of 9 or above?
Found: MET

Lookup: Item CC(C)(C)N1CCC(c2cc(-c3ccccc3Cl)c3cc[n+]([O-])c(-c4c(Cl)cccc4Cl)c3n2)CC1 [Example 59] with pIC50 of 9 or above?
Found: MET

Lookup: Item CC(C)(C)N1CCC(c2cc(-c3ccc(F)cc3F)c3cc[n+]([O-])c(-c4c(F)cccc4F)c3n2)CC1 [Example 35] with pIC50 of 9 or above?
Found: NOT MET

====

Would you mind telling me the reported pIC50 of each entry?
System: TNFα production in human monocytic cell line THP-1
PROTOCOL TEXT: Functional assay: inhibition of LPS-induced TNFα production in THP-1 cells
Type: cell-based
CONDITION SET: LPS 10 μg/ml, 5 h at 37° C., TNFα ELISA
Lab note: report pIC50 as minus log10 of the concentration in molar units, number only.

Lookup: Quick one: pIC50 of CC(C)(C)N1CCC(c2cc(-c3ccc(F)cc3Cl)c3cc[n+]([O-])c(-c4c(F)cccc4F)c3n2)CC1 [Example 48] ?
Found: 8.52

Lookup: Quick one: pIC50 of CC(C)(C)N1CCC(c2cc(-c3ccccc3Cl)c3cc[n+]([O-])c(-c4c(Cl)cccc4Cl)c3n2)CC1 [Example 59] ?
Found: 10.00

Lookup: Quick one: pIC50 of [O-][n+]1ccc2c(-c3ccc(F)cc3F)cc(C3CCNCC3)nc2c1-c1c(F)cccc1F [Example 29] ?
Found: 8.61

Lookup: Quick one: pIC50 of CC(C)(C)N1CCC(c2cc(-c3ccc(F)cc3F)c3cc[n+]([O-])c(-c4c(Cl)cccc4Cl)c3n2)CC1 [Example 36] ?
Found: 8.80

Lookup: Quick one: pIC50 of CC(C)(C)N1CCC(c2cc(-c3ccc(F)cc3Cl)c3cc[n+]([O-])c(-c4c(Cl)cccc4Cl)c3n2)CC1 [Example 49] ?
Found: 9.34

Lookup: Quick one: pIC50 of [O-][n+]1ccc2c(-c3ccc(F)cc3F)cc(N3CCNCC3)nc2c1-c1c(Cl)cccc1Cl [Example 90] ?
Found: 9.10

Lookup: Quick one: pIC50 of [O-][n+]1ccc2c(-c3ccc(F)cc3F)cc(OC3CCNCC3)nc2c1-c1c(Cl)cccc1Cl [Example 95] ?
Found: 9.70

====

Tested on: TNFα production in human monocytic cell line THP-1
PROTOCOL TEXT: Functional assay: inhibition of LPS-induced TNFα production in THP-1 cells
Assay type: cell-based
CONDITION SET: LPS 10 μg/ml, 5 h at 37° C., TNFα ELISA
The label is Yes for IC50 below 4 nM and No for IC50 equal to or exceeding 4 nM.

Lookup: Decide: IC50 of [O-][n+]1ccc2c(-c3ccc(F)cc3Cl)ccnc2c1-c1c(F)cccc1F [Example 39] strictly below 4 nM?
Found: No

Lookup: Decide: IC50 of [O-][n+]1ccc2c(-c3ccc(F)cc3Cl)cc(C3CCNCC3)nc2c1-c1c(Cl)cccc1Cl [Example 43] strictly below 4 nM?
Found: Yes

Lookup: Decide: IC50 of CC(C)(C)N1CCC(c2cc(-c3ccc(F)cc3F)c3cc[n+]([O-])c(-c4c(F)cccc4F)c3n2)CC1 [Example 35] strictly below 4 nM?
Found: Yes

Lookup: Decide: IC50 of [O-][n+]1ccc2c(-c3ccc(F)cc3F)ccnc2c1-c1c(F)cccc1F [Example 19] strictly below 4 nM?
Found: No

Lookup: Decide: IC50 of [O-][n+]1ccc2c(-c3ccc(F)cc3F)cc(OC3CCNCC3)nc2c1-c1c(F)cccc1F [Example 96] strictly below 4 nM?
Found: Yes

Lookup: Decide: IC50 of [O-][n+]1ccc2c(-c3ccc(F)cc3F)cc(NC3CCNCC3)nc2c1-c1c(Cl)cccc1Cl [Example 86] strictly below 4 nM?
Found: Yes

Lookup: Decide: IC50 of [O-][n+]1ccc2c(-c3ccc(F)cc3Cl)ccnc2c1-c1c(Cl)cccc1Cl [Example 40] strictly below 4 nM?
Found: No

Lookup: Decide: IC50 of [O-][n+]1ccc2c(-c3ccccc3Cl)cc(C3CCNCC3)nc2c1-c1c(F)cccc1F [Example 52] strictly below 4 nM?
Found: No

Lookup: Decide: IC50 of [O-][n+]1ccc2c(-c3ccccc3Cl)cc(C3CCNCC3)nc2c1-c1c(Cl)cccc1Cl [Example 53] strictly below 4 nM?
Found: Yes

These measurements were taken from patent US7906530B2.
